- measurement protocol: Plasma PK of total radioactivity, [14C]-nifurtimox and metabolites after oral dosing (HPLC-LSC)
- Assay type: in vivo
- test parameters: male Wistar rats, single oral 2.5 mg/kg [14C]-nifurtimox, pooled plasma
result type: tn (time of last quantifiable concentration) (h)
Numbers only, in h.

# annotated cases, reported tn (time of last quantifiable concentration) shown
molecule	data value
CC1CS(=O)(=O)CCN1n1cc(SCC(N)C(=O)O)ccc1=O (stereo not shown)	3
CC(=O)NC(CSc1ccc(=O)n(N2CCS(=O)(=O)CC2C)c1)C(=O)O (stereo not shown)	5
CC1CS(=O)(=O)CCN1/N=C/c1ccc([N+](=O)[O-])o1 (stereo not shown) [Nifurtimox, reference compound]	5

// sample CC1CS(=O)(=O)CCN1/N=C/C(=O)CCC#N (stereo not shown) , its tn (time of last quantifiable concentration) was 8

---

Can you tell me Cmax for the items I'm about to list?
- measurement protocol: Plasma PK of total radioactivity, [14C]-nifurtimox and metabolites after oral dosing (HPLC-LSC)
- Type: in vivo
- test parameters: male Wistar rats, single oral 2.5 mg/kg [14C]-nifurtimox, pooled plasma
Numbers only, in µg-eq/L.

compound	data value
CC1CS(=O)(=O)CCN1/N=C/C(=O)CCC#N (stereo not shown)	138
CC1CS(=O)(=O)CCN1/N=C/c1ccc([N+](=O)[O-])o1 (stereo not shown) [Nifurtimox, reference compound]	755
CC1CS(=O)(=O)CCN1n1cc(SCC(N)C(=O)O)ccc1=O (stereo not shown)	48.3

Please look at the following compound next.
// sample CC(=O)NC(CSc1ccc(=O)n(N2CCS(=O)(=O)CC2C)c1)C(=O)O (stereo not shown) , its Cmax was 32.1

---

- measurement protocol: Quantification of nifurtimox and metabolites in human plasma (LC-HRMS), plasma PK
- Format: in vivo
- test parameters: pooled plasma of 6 patients, single oral 120 mg nifurtimox, fed
Cut-off 20% on AUC(tlast-∞) (extrapolated proportion): below means True, at or above means False.

**Query** AUC(tlast-∞) (extrapolated proportion) strictly < 20% for this molecule? CC1CS(=O)(=O)CCN1/N=C/C(CCC(=O)O)=N\O (stereo not shown) [M-2]
**Result** True

**Query** AUC(tlast-∞) (extrapolated proportion) strictly < 20% for this molecule? CC1CS(=O)(=O)CCN1N (stereo not shown) [M-6]
**Result** False

**Query** AUC(tlast-∞) (extrapolated proportion) strictly < 20% for this molecule? CC1CS(=O)(=O)CCN1/N=C/c1ccc([N+](=O)[O-])o1 (stereo not shown) [Nifurtimox, reference compound]
**Result** True

**Query** AUC(tlast-∞) (extrapolated proportion) strictly < 20% for this molecule? CC1CS(=O)(=O)CCN1/N=C/C(=O)CCC(=O)O (stereo not shown) [M-3]
**Result** False

**Query** AUC(tlast-∞) (extrapolated proportion) strictly < 20% for this molecule? CC(=O)NC(CSc1ccc(=O)n(N2CCS(=O)(=O)CC2C)c1)C(=O)O (stereo not shown) [M-5]
**Result** True

**Query** AUC(tlast-∞) (extrapolated proportion) strictly < 20% for this molecule? CC1CS(=O)(=O)CCN1/N=C/C(=O)CCC#N (stereo not shown) [M-1]
**Result** True

**Query** AUC(tlast-∞) (extrapolated proportion) strictly < 20% for this molecule? CC1CS(=O)(=O)CCN1n1cc(SCC(N)C(=O)O)ccc1=O (stereo not shown) [M-4]
**Result** False

---

- measurement protocol: Quantification of nifurtimox and metabolites in human plasma (LC-HRMS), plasma PK
- Format: in vivo
- test parameters: sum of AUC of nifurtimox and M-1 to M-6 = 100%; single oral 120 mg, fed
Cut-off 20% on AUC, % of total quantified exposure: below means YES, at or above means NO.

Check out these entries, answers already filled in.
compound	category label
CC1CS(=O)(=O)CCN1/N=C/C(CCC(=O)O)=N\O (stereo not drawn) [M-2]	YES
CC(=O)NC(CSc1ccc(=O)n(N2CCS(=O)(=O)CC2C)c1)C(=O)O (stereo not drawn) [M-5]	YES
CC1CS(=O)(=O)CCN1N (stereo not drawn) [M-6]	NO
CC1CS(=O)(=O)CCN1/N=C/c1ccc([N+](=O)[O-])o1 (stereo not drawn) [Nifurtimox, reference compound]	YES

Could you now look at the following compound, please?
**Query** AUC, % of total quantified exposure strictly < 20% for this compound? CC1CS(=O)(=O)CCN1/N=C/C(=O)CCC#N (stereo not drawn) [M-1]
**Result** YES

---

- measured on: UniProt:P08183
- Sequence (P08183 whole entry): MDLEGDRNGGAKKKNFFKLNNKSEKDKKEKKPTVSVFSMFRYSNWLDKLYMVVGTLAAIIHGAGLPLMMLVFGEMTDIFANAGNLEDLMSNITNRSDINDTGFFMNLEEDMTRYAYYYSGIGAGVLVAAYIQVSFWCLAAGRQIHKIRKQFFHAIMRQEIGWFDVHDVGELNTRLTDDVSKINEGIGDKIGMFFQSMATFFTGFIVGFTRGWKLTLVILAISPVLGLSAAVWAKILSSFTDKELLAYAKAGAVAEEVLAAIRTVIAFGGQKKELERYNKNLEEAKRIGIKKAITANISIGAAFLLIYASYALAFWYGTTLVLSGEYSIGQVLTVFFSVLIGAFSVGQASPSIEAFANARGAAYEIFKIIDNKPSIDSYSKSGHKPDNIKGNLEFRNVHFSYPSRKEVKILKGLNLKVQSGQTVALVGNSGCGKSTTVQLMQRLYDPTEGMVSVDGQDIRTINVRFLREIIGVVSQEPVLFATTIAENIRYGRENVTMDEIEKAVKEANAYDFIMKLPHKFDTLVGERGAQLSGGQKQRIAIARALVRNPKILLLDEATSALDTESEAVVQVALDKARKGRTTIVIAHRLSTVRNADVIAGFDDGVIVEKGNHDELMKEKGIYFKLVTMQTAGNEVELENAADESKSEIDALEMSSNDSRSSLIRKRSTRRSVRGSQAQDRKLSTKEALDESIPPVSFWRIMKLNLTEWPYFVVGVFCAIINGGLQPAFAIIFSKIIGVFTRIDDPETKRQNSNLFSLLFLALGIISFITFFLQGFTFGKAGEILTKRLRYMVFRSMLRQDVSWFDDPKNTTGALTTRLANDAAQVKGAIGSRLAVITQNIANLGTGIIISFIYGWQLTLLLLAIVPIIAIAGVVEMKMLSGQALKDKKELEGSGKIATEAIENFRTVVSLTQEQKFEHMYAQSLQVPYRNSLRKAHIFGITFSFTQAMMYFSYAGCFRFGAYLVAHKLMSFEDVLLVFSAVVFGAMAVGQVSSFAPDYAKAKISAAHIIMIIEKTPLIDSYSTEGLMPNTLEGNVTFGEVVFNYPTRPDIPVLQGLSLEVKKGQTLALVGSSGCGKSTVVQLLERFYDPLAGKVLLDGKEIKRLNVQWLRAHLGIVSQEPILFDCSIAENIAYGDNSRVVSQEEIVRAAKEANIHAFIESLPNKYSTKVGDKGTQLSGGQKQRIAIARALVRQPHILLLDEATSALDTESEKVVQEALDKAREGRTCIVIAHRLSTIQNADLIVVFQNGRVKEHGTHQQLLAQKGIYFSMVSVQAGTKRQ
- measurement protocol: Efflux transporter inhibition
- Type: in vitro ADME
- test parameters: probe substrate dipyridamole
Can you tell me IC50 for the items I'm about to list?

# annotated cases, reported IC50 shown
molecule	result type	data value
CC1CS(=O)(=O)CCN1n1cc(SCC(N)C(=O)O)ccc1=O (stereo not drawn) [M-4]	IC50	> 20 µM
CC1CS(=O)(=O)CCN1/N=C/c1ccc([N+](=O)[O-])o1 (stereo not drawn) [Nifurtimox, reference compound]	IC50	> 100 µM

// sample CC1CS(=O)(=O)CCN1N (stereo not drawn) [M-6] , its IC50 was > 200 µM

---

- measurement protocol: Plasma PK of total radioactivity, [14C]-nifurtimox and metabolites after oral dosing (HPLC-LSC)
- Assay type: in vivo
- test parameters: male, Wistar, rat, plasma, po, 2.5 mg/kg, male Wistar rats, single oral 2.5 mg/kg [14C]-nifurtimox, plasma, interval up to 8 h; read-out: t½ (converted)
result type: half-life (min)
Give bare numbers, in min.

// sample CC1CS(=O)(=O)CCN1/N=C/c1ccc([N+](=O)[O-])o1 (stereo not shown) [Nifurtimox, reference compound] , its half-life was 84

---

- measured on: UniProt:Q8TCC7
- Sequence (Q8TCC7 whole entry): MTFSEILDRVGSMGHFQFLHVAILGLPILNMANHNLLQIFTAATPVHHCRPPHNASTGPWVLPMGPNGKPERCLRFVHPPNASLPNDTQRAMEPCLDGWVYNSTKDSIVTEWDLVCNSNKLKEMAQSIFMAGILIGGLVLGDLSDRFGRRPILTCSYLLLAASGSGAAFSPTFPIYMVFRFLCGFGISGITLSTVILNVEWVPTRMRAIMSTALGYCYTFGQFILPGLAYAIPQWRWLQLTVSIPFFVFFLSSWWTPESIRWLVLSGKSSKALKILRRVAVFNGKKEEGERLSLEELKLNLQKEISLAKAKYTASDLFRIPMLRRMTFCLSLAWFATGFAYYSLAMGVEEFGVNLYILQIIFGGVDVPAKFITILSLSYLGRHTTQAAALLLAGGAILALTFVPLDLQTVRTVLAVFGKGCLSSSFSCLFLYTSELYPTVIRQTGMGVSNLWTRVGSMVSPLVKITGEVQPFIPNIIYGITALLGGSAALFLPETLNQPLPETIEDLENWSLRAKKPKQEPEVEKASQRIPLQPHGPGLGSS
- measurement protocol: Uptake transporter inhibition
- test parameters: probe substrate estrone-3-sulphate
pIC50: −log10 of the molar value.
result type: pIC50

# annotated cases, reported pIC50 shown
compound	pIC50
CC1CS(=O)(=O)CCN1/N=C/c1ccc([N+](=O)[O-])o1 (stereo not drawn) [Nifurtimox, reference compound]	< 4.70
CC1CS(=O)(=O)CCN1n1cc(SCC(N)C(=O)O)ccc1=O (stereo not drawn)	< 5.30

// sample CC1CS(=O)(=O)CCN1N (stereo not drawn) , its pIC50 was < 4.52

---

- measured on: CYP 2D6 (Homo sapiens)
- Sequence (P10635 whole entry): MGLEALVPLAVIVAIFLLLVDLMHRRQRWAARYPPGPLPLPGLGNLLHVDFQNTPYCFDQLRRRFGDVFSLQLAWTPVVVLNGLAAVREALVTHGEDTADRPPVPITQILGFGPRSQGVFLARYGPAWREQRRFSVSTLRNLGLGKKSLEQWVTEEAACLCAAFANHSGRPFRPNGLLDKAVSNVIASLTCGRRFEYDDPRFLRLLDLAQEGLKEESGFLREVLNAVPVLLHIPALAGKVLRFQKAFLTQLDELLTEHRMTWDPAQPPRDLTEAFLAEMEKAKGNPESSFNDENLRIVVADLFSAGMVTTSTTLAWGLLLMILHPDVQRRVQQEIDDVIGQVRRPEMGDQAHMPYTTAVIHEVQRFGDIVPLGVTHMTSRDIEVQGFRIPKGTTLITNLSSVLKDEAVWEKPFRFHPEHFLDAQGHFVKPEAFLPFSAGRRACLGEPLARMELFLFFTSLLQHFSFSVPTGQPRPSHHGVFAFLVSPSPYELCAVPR
- measurement protocol: CYP inhibition with probe substrate
- Assay type: in vitro ADME
- test parameters: coincubation, probe substrate dextromethorphan; read-out: Co- IC50
Can you tell me IC50 for the items I'm about to list?

# annotated cases, reported IC50 shown
compound	measured on	result type	data value
CC1CS(=O)(=O)CCN1/N=C/c1ccc([N+](=O)[O-])o1 (stereo not drawn) [Nifurtimox, reference compound]	CYP 2D6 (Homo sapiens)	IC50	> 50 µM
CC1CS(=O)(=O)CCN1n1cc(SCC(N)C(=O)O)ccc1=O (stereo not drawn)	CYP 2D6 (Homo sapiens)	IC50	> 20 µM

Please look at the following compound next.
// sample CC1CS(=O)(=O)CCN1N (stereo not drawn) , its IC50 was > 100 µM

---

Can you tell me IC50 for the items I'm about to list?
- measured on: UniProtKB P11712
- Sequence (P11712 whole entry): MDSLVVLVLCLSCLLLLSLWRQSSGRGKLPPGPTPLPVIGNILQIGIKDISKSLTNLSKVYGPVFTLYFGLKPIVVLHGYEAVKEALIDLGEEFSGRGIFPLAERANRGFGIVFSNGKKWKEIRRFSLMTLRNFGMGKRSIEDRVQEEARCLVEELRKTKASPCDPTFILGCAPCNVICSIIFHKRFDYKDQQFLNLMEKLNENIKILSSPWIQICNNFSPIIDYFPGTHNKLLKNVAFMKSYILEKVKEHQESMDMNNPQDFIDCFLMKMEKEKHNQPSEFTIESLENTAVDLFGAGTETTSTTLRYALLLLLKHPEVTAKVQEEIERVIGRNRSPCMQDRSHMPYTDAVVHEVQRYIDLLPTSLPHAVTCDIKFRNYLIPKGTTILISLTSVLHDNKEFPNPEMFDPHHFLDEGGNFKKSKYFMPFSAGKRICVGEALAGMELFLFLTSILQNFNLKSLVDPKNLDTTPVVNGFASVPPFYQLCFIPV
- measurement protocol: CYP inhibition with probe substrate
- Type: in vitro ADME
- test parameters: 30-min preincubation, probe substrate diclofenac; read-out: Pre- IC50 (+ NADPH)

# annotated cases, reported IC50 shown
compound	IC50
CC1CS(=O)(=O)CCN1n1cc(SCC(N)C(=O)O)ccc1=O (stereo not drawn)	> 20 µM
CC1CS(=O)(=O)CCN1/N=C/c1ccc([N+](=O)[O-])o1 (stereo not drawn) [Nifurtimox, reference compound]	> 50 µM

Please look at the following compound next.
// sample CC1CS(=O)(=O)CCN1N (stereo not drawn) , its IC50 was > 100 µM

---

- measurement protocol: Quantification of nifurtimox and metabolites in human urine (LC-HRMS)
- Format: in vivo
- test parameters: mean of 6 fasted patients with Chagas disease, single oral 120 mg nifurtimox
Can you tell me AE,urine(0–24h), fasted patients for the items I'm about to list?

# annotated cases, reported AE,urine(0–24h), fasted patients shown
compound	data value
CC1CS(=O)(=O)CCN1n1cc(SCC(N)C(=O)O)ccc1=O (stereo not shown)	5.9 % of dose
CC1CS(=O)(=O)CCN1N (stereo not shown)	13.7 % of dose
CC1CS(=O)(=O)CCN1/N=C/C(CCC(=O)O)=N\O (stereo not shown)	1.0 % of dose
CC1CS(=O)(=O)CCN1/N=C/c1ccc([N+](=O)[O-])o1 (stereo not shown) [Nifurtimox, reference compound]	0.03 % of dose
CC(=O)NC(CSc1ccc(=O)n(N2CCS(=O)(=O)CC2C)c1)C(=O)O (stereo not shown)	3.4 % of dose

Batch request: AE,urine(0–24h), fasted patients for each of the following compounds.
1. CC1CS(=O)(=O)CCN1/N=C/C(=O)CCC(=O)O (stereo not shown)
2. CC1CS(=O)(=O)CCN1/N=C/C(=O)CCC#N (stereo not shown)

**Result**
0.06 % of dose
3.2 % of dose
